Biological target: T1, human CD3 on CD3+ Jurkat cells (human, UniProt P07766 23-207)
T1 construct: whole, on cells; Native CD3 complex on cells; the other CD3 chains are not specified for this assay; also called Human CD3+ Jurkat
T1 sequence (P07766 23-207): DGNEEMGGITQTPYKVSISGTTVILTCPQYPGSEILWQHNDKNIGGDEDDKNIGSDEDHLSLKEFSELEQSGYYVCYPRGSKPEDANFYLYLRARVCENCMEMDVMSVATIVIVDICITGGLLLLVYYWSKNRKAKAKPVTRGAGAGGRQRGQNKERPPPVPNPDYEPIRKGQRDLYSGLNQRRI
Experiment: flow cytometry on CD3+ Jurkat cells, ratio of MFI at pH 6.0 to pH 7.4
measureName: MFI pH 6.0/MFI pH 7.4
Lab note: record the figure alone, no unit after it.

Worked cases, MFI pH 6.0/MFI pH 7.4 given:
{"binder": "SAD10319_P01_F02 (ADI-48624) (antibody, V domains shown, IgG; also called Ab241) VH: QVQLVQSGAEVKKPGASVKVSCKASGYTFESYDMHWVRQAPGQRLEWMGWIDAGTGNTKYSQKFQGRVTITADESTSTAYMELSSLRSEDTAVYYCARDHYGHYFYDVWGQGTLVTVSS VL: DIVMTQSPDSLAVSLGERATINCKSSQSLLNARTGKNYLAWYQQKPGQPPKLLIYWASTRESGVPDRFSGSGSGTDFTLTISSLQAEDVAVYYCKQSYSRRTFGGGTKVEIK", "valueMeasured": 15.4}
{"binder": "SAD10320_P02_C06 (ADI-48654) (antibody, V domains shown, IgG; also called Ab84) VH: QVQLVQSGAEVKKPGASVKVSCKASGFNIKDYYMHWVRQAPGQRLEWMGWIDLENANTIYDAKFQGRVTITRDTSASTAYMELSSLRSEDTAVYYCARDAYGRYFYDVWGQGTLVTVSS VL: DIVMTQSPDSLAVSLGERATINCKSSQSLLNARTGKNYLAWYQQKPGQPPKLLIYWASTRESGVPDRFSGSGSGTDFTLTISSLQAEDVAVYYCKQSGHRRTFGGGTKVEIK", "valueMeasured": 1.1}
{"binder": "LAD5224_P03_A01 (ADI-26906) (antibody, V domains shown, IgG; also called Ab1; parent clone) VH: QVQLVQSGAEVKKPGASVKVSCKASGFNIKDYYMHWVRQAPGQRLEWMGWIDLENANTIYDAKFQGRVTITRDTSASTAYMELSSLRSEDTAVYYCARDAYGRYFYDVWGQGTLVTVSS VL: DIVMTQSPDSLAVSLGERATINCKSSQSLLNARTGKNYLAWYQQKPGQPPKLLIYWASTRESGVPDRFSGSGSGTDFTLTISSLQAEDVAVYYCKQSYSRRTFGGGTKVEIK", "valueMeasured": 1.1}

Switching to the query record.
MFI pH 6.0/MFI pH 7.4 for SAD10320_P04_E10 (ADI-48657) (antibody, V domains shown, IgG; also called Ab106) VH: QVQLVQSGAEVKKPGASVKVSCKASGFNIKDYYMHWVRQAPGQRPEWMGWIDLENANTIYDAKFQGRVTITRDTSASTAYMELSSLRSEDTAVYYCARDAYGHDFYDVWGQGTLVTVSS VL: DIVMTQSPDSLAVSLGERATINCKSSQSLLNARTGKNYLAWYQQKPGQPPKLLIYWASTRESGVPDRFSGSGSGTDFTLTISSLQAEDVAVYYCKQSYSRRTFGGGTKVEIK is 11.7
